These entries and their values trace back to the RNAGym collection of RNA variant scans (doi:10.1126/science.aae0568).

B1: tRNA (parent)
chain: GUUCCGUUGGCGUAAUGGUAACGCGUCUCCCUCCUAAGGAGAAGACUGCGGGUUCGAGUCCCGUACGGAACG

- Variants of: B1
- protocol details: yeast fitness relative to wild type (ratio to wild type); higher = fitter; tRNA-Arg(CCU), competitive growth, 37 C, YPD
Variants at the floor of the assay were thinned out.
Measured yeast fitness by item
measured metric: yeast fitness

{"mutant designation": "G9C U35C C46U", "measured metric": "yeast fitness", "value comparator": "=", "meas value": 0.601}
{"mutant designation": "A21U A45U", "measured metric": "yeast fitness", "value comparator": "=", "meas value": 0.676}
{"mutant designation": "A42U C66U", "measured metric": "yeast fitness", "value comparator": "=", "meas value": 0.793}
{"mutant designation": "A21U C30G G48A", "measured metric": "yeast fitness", "value comparator": "≤", "meas value": 0.5}
{"mutant designation": "G17A C31U A70C", "measured metric": "yeast fitness", "value comparator": "=", "meas value": 0.658}
{"mutant designation": "C5A G17A C34A", "measured metric": "yeast fitness", "value comparator": "≤", "meas value": 0.5}
{"mutant designation": "U2A G9C U16G U32G U47A A57C C62U", "measured metric": "yeast fitness", "value comparator": "≤", "meas value": 0.5}
{"mutant designation": "U54C C55A", "measured metric": "yeast fitness", "value comparator": "=", "meas value": 0.635}
{"mutant designation": "C5A A45C C46G G48C U64C", "measured metric": "yeast fitness", "value comparator": "≤", "meas value": 0.5}
{"mutant designation": "C5G A20U C62G", "measured metric": "yeast fitness", "value comparator": "≤", "meas value": 0.5}
{"mutant designation": "C5U A21G G44C A57U C62U", "measured metric": "yeast fitness", "value comparator": "≤", "meas value": 0.5}
{"mutant designation": "C11U G25C A36U", "measured metric": "yeast fitness", "value comparator": "=", "meas value": 0.547}
{"mutant designation": "U7C A45C", "measured metric": "yeast fitness", "value comparator": "=", "meas value": 0.761}
{"mutant designation": "U7A G9C A40C", "measured metric": "yeast fitness", "value comparator": "=", "meas value": 0.623}
{"mutant designation": "G6C G38C A43C G51C G56C", "measured metric": "yeast fitness", "value comparator": "=", "meas value": 0.526}
{"mutant designation": "C27U C30U A42C G58C", "measured metric": "yeast fitness", "value comparator": "≤", "meas value": 0.5}
{"mutant designation": "C4U C60U C62A", "measured metric": "yeast fitness", "value comparator": "≤", "meas value": 0.5}
{"mutant designation": "C11A G17A C33U A70C", "measured metric": "yeast fitness", "value comparator": "≤", "meas value": 0.5}
{"mutant designation": "A14G C49G A69U", "measured metric": "yeast fitness", "value comparator": "=", "meas value": 0.566}
{"mutant designation": "C11U A20G U35A", "measured metric": "yeast fitness", "value comparator": "≤", "meas value": 0.5}
{"mutant designation": "A20U C34A", "measured metric": "yeast fitness", "value comparator": "=", "meas value": 0.7}
{"mutant designation": "U13C C24G", "measured metric": "yeast fitness", "value comparator": "=", "meas value": 0.672}
{"mutant designation": "U8A U13A A14C U16A G67A", "measured metric": "yeast fitness", "value comparator": "=", "meas value": 0.584}
{"mutant designation": "G6C G23A C49U", "measured metric": "yeast fitness", "value comparator": "≤", "meas value": 0.5}
{"mutant designation": "U7C A42C C55U", "measured metric": "yeast fitness", "value comparator": "≤", "meas value": 0.5}
{"mutant designation": "U16C A20U C24U C49A", "measured metric": "yeast fitness", "value comparator": "≤", "meas value": 0.5}
{"mutant designation": "A45C U47A C66U", "measured metric": "yeast fitness", "value comparator": "=", "meas value": 0.595}
{"mutant designation": "C5U C11U U35G A43U C46G U53C A69C", "measured metric": "yeast fitness", "value comparator": "=", "meas value": 0.549}
{"mutant designation": "C4G G18C A42U C46G", "measured metric": "yeast fitness", "value comparator": "≤", "meas value": 0.5}
{"mutant designation": "U26C U32C C33G A42C C49G G58C C62G", "measured metric": "yeast fitness", "value comparator": "≤", "meas value": 0.5}
{"mutant designation": "G25A C29A G38A", "measured metric": "yeast fitness", "value comparator": "≤", "meas value": 0.5}
{"mutant designation": "U7C A45U", "measured metric": "yeast fitness", "value comparator": "=", "meas value": 0.837}
{"mutant designation": "C5U C30U A37C U54A", "measured metric": "yeast fitness", "value comparator": "≤", "meas value": 0.5}
{"mutant designation": "C29A A45C C46U G51A G56A", "measured metric": "yeast fitness", "value comparator": "≤", "meas value": 0.5}
{"mutant designation": "C11A U16C C33U A37C", "measured metric": "yeast fitness", "value comparator": "≤", "meas value": 0.5}
{"mutant designation": "A14U G56A", "measured metric": "yeast fitness", "value comparator": "=", "meas value": 0.619}
{"mutant designation": "A15C A20G C31A U59C A69G", "measured metric": "yeast fitness", "value comparator": "≤", "meas value": 0.5}
{"mutant designation": "C5U A15G C66U", "measured metric": "yeast fitness", "value comparator": "=", "meas value": 0.632}
{"mutant designation": "G50A G63C", "measured metric": "yeast fitness", "value comparator": "=", "meas value": 0.737}
{"mutant designation": "U26A A42G G48C C62G", "measured metric": "yeast fitness", "value comparator": "≤", "meas value": 0.5}
{"mutant designation": "U35G G51A", "measured metric": "yeast fitness", "value comparator": "=", "meas value": 0.634}
{"mutant designation": "U8C G9A U13G C62U", "measured metric": "yeast fitness", "value comparator": "≤", "meas value": 0.5}
{"mutant designation": "C29G A65C", "measured metric": "yeast fitness", "value comparator": "=", "meas value": 0.564}
{"mutant designation": "U3G C4U C22A", "measured metric": "yeast fitness", "value comparator": "≤", "meas value": 0.5}
{"mutant designation": "U28A G52C", "measured metric": "yeast fitness", "value comparator": "≤", "meas value": 0.5}
{"mutant designation": "G6A G38A C61A", "measured metric": "yeast fitness", "value comparator": "≤", "meas value": 0.5}
{"mutant designation": "G10C U32C", "measured metric": "yeast fitness", "value comparator": "=", "meas value": 0.73}
{"mutant designation": "A15G C60G C62U", "measured metric": "yeast fitness", "value comparator": "≤", "meas value": 0.5}
{"mutant designation": "U2C A15C U19C C22G U59C C60G", "measured metric": "yeast fitness", "value comparator": "≤", "meas value": 0.5}
{"mutant designation": "C11U C22U U54C", "measured metric": "yeast fitness", "value comparator": "=", "meas value": 0.639}
{"mutant designation": "U32C C55U A69C", "measured metric": "yeast fitness", "value comparator": "=", "meas value": 0.63}
{"mutant designation": "C24G A43G C49U C55G", "measured metric": "yeast fitness", "value comparator": "=", "meas value": 0.643}
{"mutant designation": "C49U C60A C61A", "measured metric": "yeast fitness", "value comparator": "=", "meas value": 0.574}
{"mutant designation": "C11G A15C A45C", "measured metric": "yeast fitness", "value comparator": "≤", "meas value": 0.5}
{"mutant designation": "A14C A42C C49A A70U", "measured metric": "yeast fitness", "value comparator": "=", "meas value": 0.588}
{"mutant designation": "A14U U16A C33G", "measured metric": "yeast fitness", "value comparator": "≤", "meas value": 0.5}
{"mutant designation": "C30U A65U C66G", "measured metric": "yeast fitness", "value comparator": "≤", "meas value": 0.5}
{"mutant designation": "C5G C30G G38C G56C", "measured metric": "yeast fitness", "value comparator": "=", "meas value": 0.621}
{"mutant designation": "A37G G48C C49U C60A A65U", "measured metric": "yeast fitness", "value comparator": "≤", "meas value": 0.5}
{"mutant designation": "C11U G12A G18C U47C G68C", "measured metric": "yeast fitness", "value comparator": "≤", "meas value": 0.5}
{"mutant designation": "A20G A21G C22U", "measured metric": "yeast fitness", "value comparator": "=", "meas value": 0.564}
{"mutant designation": "C22U G25C C33A", "measured metric": "yeast fitness", "value comparator": "=", "meas value": 0.552}
{"mutant designation": "U13A C24G G25A C31U", "measured metric": "yeast fitness", "value comparator": "≤", "meas value": 0.5}
{"mutant designation": "A20G U35C G63A A70U", "measured metric": "yeast fitness", "value comparator": "≤", "meas value": 0.5}
{"mutant designation": "G48C G56A A70U", "measured metric": "yeast fitness", "value comparator": "=", "meas value": 0.918}
{"mutant designation": "U28C C33G A40G G51C C61U A65U", "measured metric": "yeast fitness", "value comparator": "≤", "meas value": 0.5}
{"mutant designation": "G23C G50C G52A", "measured metric": "yeast fitness", "value comparator": "=", "meas value": 0.698}
{"mutant designation": "G25C C31G", "measured metric": "yeast fitness", "value comparator": "=", "meas value": 0.704}
{"mutant designation": "C30A A37C", "measured metric": "yeast fitness", "value comparator": "=", "meas value": 0.772}
{"mutant designation": "C4G A14U C31U G44A C46U C49U", "measured metric": "yeast fitness", "value comparator": "≤", "meas value": 0.5}
{"mutant designation": "C5U C11U A36U C49G", "measured metric": "yeast fitness", "value comparator": "≤", "meas value": 0.5}
